Source listed as paper PMC3174154.

# SYSTEM TESTED: the molecule itself
# PROTOCOL TEXT: SEC; Rs against protein concentration in the eluting peak; monomer-dimer equilibrium fitted (dimer to monomers); the text names size exclusion chromatography and light scattering
pKd: −log10 of the molar value.

{"PROTEIN": "mature ectodomain of ICA512 (ME ICA512), wild type, residues 470 to 558 (domain or fragment, human, UniProt Q16849 470-558, looked up, the results say 470 to 556; The methods give 470-558, the results 470-556; also called wild-type ME ICA512; wild type variant) EYGYIVTDQKPLSLAAGVKLLEILAEHVHMSSGSFINISVVGPALTFRIRHNEQNLSLADVTQQAGLVKSELEAQTGLQILQTGVGQRE", "pKd": 6.10}
